method-notes: Pharmacokinetic: drug concentrations in plasma by LC-MS after subcutaneous administration
condition-notes: ICR, mouse, plasma, sc, 3 μg/kg, Plasma concentration 3 hr, ICR mice; buprenorphine 3 μg/kg s.c.; individual samples

chemical-structure | concentration at 3 h (ng/mL)
CO[C@]12CC[C@@]3(C[C@@H]1[C@](C)(O)C(C)(C)C)[C@H]1Cc4ccc(O)c5c4[C@@]3(CCN1CC1CC1)[C@H]2O5 | 0.0613

###

method-notes: Pharmacokinetic: drug concentrations in plasma by LC-MS after subcutaneous administration
condition-notes: ICR, mouse, plasma, sc, 1 ug/kg

compound | unit-tag | Cmax
CO[C@]12CC[C@@]3(C[C@@H]1[C@](C)(O)C(C)(C)C)[C@H]1Cc4ccc(O)c5c4[C@@]3(CCN1CC1CC1)[C@H]2O5 [buprenorphine] | ng/mL | 0.067

###

method-notes: Pharmacokinetic: drug concentrations in plasma by LC-MS after subcutaneous administration
condition-notes: ICR, mouse, plasma, sc, 30 μg/kg, Plasma concentration 3 hr, ICR mice; buprenorphine 30 μg/kg s.c.; individual samples

compound | concentration at 3 h / ng/mL
CO[C@]12CC[C@@]3(C[C@@H]1[C@](C)(O)C(C)(C)C)[C@H]1Cc4ccc(O)c5c4[C@@]3(CCN1CC1CC1)[C@H]2O5 [buprenorphine] | 0.412

###

method-notes: Pharmacokinetic: drug concentrations in plasma by LC-MS after subcutaneous administration
condition-notes: ICR, mouse, plasma, sc, 3 ug/kg

molecule | Cmax / ng/mL
CO[C@]12CC[C@@]3(C[C@@H]1[C@](C)(O)C(C)(C)C)[C@H]1Cc4ccc(O)c5c4[C@@]3(CCN1CC1CC1)[C@H]2O5 [buprenorphine] | 0.268

###

method-notes: Pharmacokinetic: drug concentrations in plasma by LC-MS after subcutaneous administration
condition-notes: ICR, mouse, plasma, sc, 10 μg/kg, Plasma concentration 24 hr, ICR mice; buprenorphine 10 μg/kg s.c.; Mean

chemical-structure | unit-tag | concentration at 24 h
CO[C@]12CC[C@@]3(C[C@@H]1[C@](C)(O)C(C)(C)C)[C@H]1Cc4ccc(O)c5c4[C@@]3(CCN1CC1CC1)[C@H]2O5 | pg/mL | 0.777

###

method-notes: Pharmacokinetic: drug concentrations in plasma by LC-MS after subcutaneous administration
condition-notes: ICR, mouse, plasma, sc, 0.3 μg/kg, Plasma concentration 0.5 hr, ICR mice; buprenorphine 0.3 μg/kg s.c.; individual samples
attribute-measured: concentration at 0.5 h (ng/mL)

compound | val
CO[C@]12CC[C@@]3(C[C@@H]1[C@](C)(O)C(C)(C)C)[C@H]1Cc4ccc(O)c5c4[C@@]3(CCN1CC1CC1)[C@H]2O5 [buprenorphine] | 0.0228

###

method-notes: Pharmacokinetic: drug concentrations in plasma by LC-MS after subcutaneous administration
condition-notes: ICR, mouse, plasma, sc, 1 μg/kg, Plasma concentration 1 hr, ICR mice; buprenorphine 1 μg/kg s.c.; Measured value
attribute-measured: concentration at 1 h (ng/mL)

chemical-structure | unit-tag | val
CO[C@]12CC[C@@]3(C[C@@H]1[C@](C)(O)C(C)(C)C)[C@H]1Cc4ccc(O)c5c4[C@@]3(CCN1CC1CC1)[C@H]2O5 | ng/mL | 0.025

###

method-notes: Pharmacokinetic: drug concentrations in plasma by LC-MS after subcutaneous administration
condition-notes: ICR, mouse, plasma, sc, 3 μg/kg, Plasma concentration 3 hr, ICR mice; buprenorphine 3 μg/kg s.c.; Mean
attribute-measured: concentration at 3 h (ng/mL)

molecule | val
CO[C@]12CC[C@@]3(C[C@@H]1[C@](C)(O)C(C)(C)C)[C@H]1Cc4ccc(O)c5c4[C@@]3(CCN1CC1CC1)[C@H]2O5 [buprenorphine] | 0.0641
